assay: Study for confirmation of conversion to brexpiprazole in a buffer (stability of the evaluation compounds); type: physicochemical; details: in buffer; 60-minute reaction sample; average of duplicate
readout_type: Concentration of brexpiprazole formed (nM)

1. O=C(CCCCCO)OCOP(=O)([O-])OC[N+]1(CCCCOc2ccc3ccc(=O)[nH]c3c2)CCN(c2cccc3sccc23)CC1	0
2. CC(O)CCOP(=O)([O-])OC[N+]1(CCCCOc2ccc3ccc(=O)[nH]c3c2)CCN(c2cccc3sccc23)CC1 (centres unmarked)	0
3. CCOCCOCCOC(=O)OCOP(=O)([O-])OC[N+]1(CCCCOc2ccc3ccc(=O)[nH]c3c2)CCN(c2cccc3sccc23)CC1	0
4. COCCNP(=O)([O-])OC[N+]1(CCCCOc2ccc3ccc(=O)[nH]c3c2)CCN(c2cccc3sccc23)CC1	0
5. O=c1ccc2ccc(OCCCC[N+]3(COP(=O)([O-])OC/C=C/CO)CCN(c4cccc5sccc45)CC3)cc2[nH]1	0
6. CC(C)OC(=O)OCOP(=O)([O-])OC[N+]1(CCCCOc2ccc3ccc(=O)[nH]c3c2)CCN(c2cccc3sccc23)CC1	0
7. O=c1ccc2ccc(OCCCC[N+]3(COP(=O)([O-])OCC4CC4)CCN(c4cccc5sccc45)CC3)cc2[nH]1	0
8. C[C@@H](OP(=O)([O-])OC[N+]1(CCCCOc2ccc3ccc(=O)[nH]c3c2)CCN(c2cccc3sccc23)CC1)C(=O)OC(C)(C)C	0
9. COCCC(=O)OCOP(=O)([O-])OC[N+]1(CCCCOc2ccc3ccc(=O)[nH]c3c2)CCN(c2cccc3sccc23)CC1	-10
10. O=C(O)CCCCCOC(=O)OCOP(=O)([O-])OC[N+]1(CCCCOc2ccc3ccc(=O)[nH]c3c2)CCN(c2cccc3sccc23)CC1	0
11. COCCn1nc(C(=O)OCOP(=O)([O-])OC[N+]2(CCCCOc3ccc4ccc(=O)[nH]c4c3)CCN(c3cccc4sccc34)CC2)c2ccccc21	0
12. CCOCCOC(=O)[C@@H](C)OP(=O)([O-])OC[N+]1(CCCCOc2ccc3ccc(=O)[nH]c3c2)CCN(c2cccc3sccc23)CC1	0
13. CCNP(=O)([O-])OC[N+]1(CCCCOc2ccc3ccc(=O)[nH]c3c2)CCN(c2cccc3sccc23)CC1	0
14. COCCOCCOP(=O)([O-])OC[N+]1(CCCCOc2ccc3ccc(=O)[nH]c3c2)CCN(c2cccc3sccc23)CC1	0
15. CCCCOCCOCCOCCOC(=O)OCOP(=O)([O-])OC[N+]1(CCCCOc2ccc3ccc(=O)[nH]c3c2)CCN(c2cccc3sccc23)CC1	0
16. CC(C)OCCOCCOCCOC(=O)OCOP(=O)([O-])OC[N+]1(CCCCOc2ccc3ccc(=O)[nH]c3c2)CCN(c2cccc3sccc23)CC1	0
17. CC(C)NC(=O)CCCCCCCCC(=O)OCOP(=O)([O-])OC[N+]1(CCCCOc2ccc3ccc(=O)[nH]c3c2)CCN(c2cccc3sccc23)CC1	0
18. CCC(=O)OC[N+]1(CCCCOc2ccc3ccc(=O)[nH]c3c2)CCN(c2cccc3sccc23)CC1.[I-] [REX 5, reference compound]	260
19. CC(C)OC(=O)[C@@H](C)OP(=O)([O-])OC[N+]1(CCCCOc2ccc3ccc(=O)[nH]c3c2)CCN(c2cccc3sccc23)CC1	0
20. CC(=O)OCCCCCCOP(=O)([O-])OC[N+]1(CCCCOc2ccc3ccc(=O)[nH]c3c2)CCN(c2cccc3sccc23)CC1	0
21. COCCCOC(=O)OCOP(=O)([O-])OC[N+]1(CCCCOc2ccc3ccc(=O)[nH]c3c2)CCN(c2cccc3sccc23)CC1	0
22. O=c1ccc2ccc(OCCCC[N+]3(COP(=O)([O-])OCC#CCCl)CCN(c4cccc5sccc45)CC3)cc2[nH]1	0
23. CCCOCCOP(=O)([O-])OC[N+]1(CCCCOc2ccc3ccc(=O)[nH]c3c2)CCN(c2cccc3sccc23)CC1	0
24. CCOP(=O)([O-])OC[N+]1(CCCCOc2ccc3ccc(=O)[nH]c3c2)CCN(c2cccc3sccc23)CC1	0
25. C[C@@H]1CN(CCOP(=O)([O-])OC[N+]2(CCCCOc3ccc4ccc(=O)[nH]c4c3)CCN(c3cccc4sccc34)CC2)C[C@H](C)O1	0
26. COC(=O)[C@H](COP(=O)([O-])OC[N+]1(CCCCOc2ccc3ccc(=O)[nH]c3c2)CCN(c2cccc3sccc23)CC1)NC(=O)OC(C)(C)C	0
